target system: T1, human MYCT1 (hMYCT1) (human, UniProt Q8N699 1-235, limits assumed)
T1 construct: also called MYC Target 1
T1 sequence: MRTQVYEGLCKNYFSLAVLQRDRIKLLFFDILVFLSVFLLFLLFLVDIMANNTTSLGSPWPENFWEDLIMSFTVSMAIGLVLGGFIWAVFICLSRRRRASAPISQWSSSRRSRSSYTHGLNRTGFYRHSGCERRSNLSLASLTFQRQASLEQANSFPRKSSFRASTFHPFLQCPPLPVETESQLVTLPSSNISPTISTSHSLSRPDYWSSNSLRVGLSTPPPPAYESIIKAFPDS
test name: SPR koff ranking, single curve, antibody captured via anti-human Fc IgG, 10 nM MYCT1 as analyte, 1:1 binding model
recorded metric: koff (s⁻¹)
Please state the figure in s⁻¹; there is no need to write the unit.

// solved cases for koff follow
- binder: "11B6-z15-uIgG1K (antibody, V domains shown) VH: EVQLVESGGGLVKPGGSLRLSCAASGFTFSDFGIHWVRQAPGKGLEWVGYISSGSRTIHYADTVKGRFTISRDNAKNTLFLQMNSLRAEDTAIYYCARRDWDPEWLAYWGQGTLVTVSS VL: DVVMTQAPLSLPVSLGDQASISCRSSLSLVHSNGHTYLHWYLQKPGQSPKLLIYKVSNRFSGVPDRFSGSGSGTDFTLKIRRVEAEDLGVYFCSQSTHVPFTFGSGTKLEIK"
  koff / s⁻¹: 0.00906
- binder: "11B6-z0-uIgG1K (antibody, V domains shown) VH: EVQLVESGGGLVKPGGSLRLSCAASGFTFSDFGIHWVRQAPGKGLEWVSYISSGSRTIHYADTVKGRFTISRDNAKNSLYLQMNSLRAEDTAVYYCARRDWDPEWLAYWGQGTLVTVSS VL: DIVMTQSPLSLPVTPGEPASISCRSSLSLVHSNGHTYLHWYLQKPGQSPQLLIYKVSNRFSGVPDRFSGSGSGTDFTLKISRVEAEDVGVYYCSQSTHVPFTFGQGTKLEIK"
  koff / s⁻¹: 0.0624
- binder: "11B6-z6-uIgG1K (antibody, V domains shown) VH: EVQLVESGGGLVKPGGSLRLSCAASGFTFSDFGIHWVRQAPGKGLEWVSYISSGSRTIHYADTVKGRFTISRDNAKNSLYLQMNSLRAEDTAVYYCARRDWDPEWLAYWGQGTLVTVSS VL: DIVMTQSPLSLPVTPGEPASISCRSSLSLVHSNGHTYLHWYLQKPGQSPKLLIYKVSNRFSGVPDRFSGSGSGTDFTLKISRVEAEDVGVYYCSQSTHVPFTFGQGTKLEIK"
  koff / s⁻¹: 0.0377
- binder: "11B6-z3-uIgG1K (antibody, V domains shown) VH: EVQLVESGGGLVKPGGSLRLSCAASGFTFSDFGIHWVRQAPGKGLEWVSYISSGSRTIHYADTVKGRFTISRDNAKNSLFLQMNSLRAEDTAVYYCARRDWDPEWLAYWGQGTLVTVSS VL: DIVMTQSPLSLPVTPGEPASISCRSSLSLVHSNGHTYLHWYLQKPGQSPQLLIYKVSNRFSGVPDRFSGSGSGTDFTLKISRVEAEDVGVYYCSQSTHVPFTFGQGTKLEIK"
  koff / s⁻¹: 0.0659
- binder: "11B6-z10-uIgG1K (antibody, V domains shown) VH: EVQLVESGGGLVKPGGSLRLSCAASGFTFSDFGIHWVRQAPGKGLEWVGYISSGSRTIHYADTVKGRFTISRDNAKNSLYLQMNSLRAEDTAVYYCARRDWDPEWLAYWGQGTLVTVSS VL: DVVMTQSPLSLPVTPGEPASISCRSSLSLVHSNGHTYLHWYLQKPGQSPQLLIYKVSNRFSGVPDRFSGSGSGTDFTLKISRVEAEDVGVYFCSQSTHVPFTFGQGTKLEIK"
  koff / s⁻¹: 0.0102
- binder: "11B6-p3-uIgG1K (antibody, V domains shown) VH: EVQLVESGGGLVKPGGSLKLSCAASGFTFSDFGIHWVRQAPEKGLEWVGYISSGSRTIHYADTVKGRFTISRDNAKNTLFLQMTNLRSEDTAIYYCARRDWDPEWLAYWGQGTLVTISA VL: DVVMTQAPLSLPVSLGDQASISCRSSLSLVHSNAHTYLHWYLQKPGQSPKLLIYKVSNRFSGVPDRFSGSGSGTDFTLKIRRVEAEDLGVYFCSQSTHVPFTFGSGTKLEIK"
  koff / s⁻¹: 0.00547
- binder: "11B6-z9-uIgG1K (antibody, V domains shown) VH: EVQLVESGGGLVKPGGSLRLSCAASGFTFSDFGIHWVRQAPGKGLEWVSYISSGSRTIHYADTVKGRFTISRDNAKNSLYLQMNSLRAEDTAVYYCARRDWDPEWLAYWGQGTLVTVSS VL: DVVMTQSPLSLPVTPGEPASISCRSSLSLVHSNGHTYLHWYLQKPGQSPQLLIYKVSNRFSGVPDRFSGSGSGTDFTLKISRVEAEDVGVYFCSQSTHVPFTFGQGTKLEIK"
  koff / s⁻¹: 0.0311
- binder: "11B6-z5-uIgG1K (antibody, V domains shown) VH: EVQLVESGGGLVKPGGSLRLSCAASGFTFSDFGIHWVRQAPGKGLEWVSYISSGSRTIHYADTVKGRFTISRDNAKNSLYLQMNSLRAEDTAVYYCARRDWDPEWLAYWGQGTLVTVSS VL: DVVMTQSPLSLPVTPGEPASISCRSSLSLVHSNGHTYLHWYLQKPGQSPQLLIYKVSNRFSGVPDRFSGSGSGTDFTLKISRVEAEDVGVYYCSQSTHVPFTFGQGTKLEIK"
  koff / s⁻¹: 0.0521

Quick one: koff for 11B6 parent antibody (antibody, V domains shown, Mouse parental variable domains; also called parent antibody (11B6); 11B6 clone) VH: EVQLVESGGGLVKPGGSLKLSCAASGFTFSDFGIHWVRQAPEKGLEWVGYISSGSRTIHYADTVKGRFTISRDNAKNTLFLQMTNLRSEDTAIYYCARRDWDPEWLAYWGQGTLVTISA VL: DVVMTQAPLSLPVSLGDQASISCRSSLSLVHSNGHTYLHWYLQKPGQSPKLLIYKVSNRFSGVPDRFSGSGSGTDFTLKIRRVEAEDLGVYFCSQSTHVPFTFGSGTKLEIK ?
0.00496

Repeat for the following binder: 11B6-z12-uIgG1K (antibody, V domains shown) VH: EVQLVESGGGLVKPGGSLRLSCAASGFTFSDFGIHWVRQAPGKGLEWVGYISSGSRTIHYADTVKGRFTISRDNAKNSLYLQMNSLRAEDTAIYYCARRDWDPEWLAYWGQGTLVTVSS VL: DVVMTQSPLSLPVTPGEPASISCRSSLSLVHSNGHTYLHWYLQKPGQSPKLLIYKVSNRFSGVPDRFSGSGSGTDFTLKIRRVEAEDVGVYFCSQSTHVPFTFGQGTKLEIK
0.00838

Repeat for the following binder: 11B6-p2-uIgG1K (antibody, V domains shown) VH: EVQLVESGGGLVKPGGSLKLSCAASGFTFSDFGIHWVRQAPEKGLEWVGYISSGSRTIHYADTVKGRFTISRDNAKNTLFLQMTNLRSEDTAIYYCARRDWDPEWLAYWGQGTLVTISA VL: DVVMTQAPLSLPVSLGDQASISCRSSLSLVHSSGHTYLHWYLQKPGQSPKLLIYKVSNRFSGVPDRFSGSGSGTDFTLKIRRVEAEDLGVYFCSQSTHVPFTFGSGTKLEIK
0.00691
